Cited source: patent US20170015742A1

# experimental.target: T1, Human VEGF-A 165 (human, UniProt P15692 207-395)
# T1 construct: Recombinant human VEGF165; also called huVEGF-A165; hVEGF165
# T1 sequence (P15692 other isoform, or with tags, fused parts or gaps): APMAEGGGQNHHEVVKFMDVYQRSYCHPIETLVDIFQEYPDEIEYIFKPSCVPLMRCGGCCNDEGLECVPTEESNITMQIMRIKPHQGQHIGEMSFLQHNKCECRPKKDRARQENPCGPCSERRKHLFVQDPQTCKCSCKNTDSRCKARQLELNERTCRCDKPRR
# protocol.summary: SPR (Biacore), antibody captured by anti-human Fc, hVEGF165 as analyte
property.label: kon (M⁻¹ s⁻¹)
The figure you give is taken to be in M⁻¹ s⁻¹; do not add the unit.

binder	experimental.result
chBEW-1E3 (antibody, human IgG1, kappa, L234A L235A, V domains shown, also called chBEW-1E3-D6) VH: QIQLVQSGPELKKPGESVKISCKASGYPFTNSGMYWVKQAPGQGLQYMGWINTEAGKPTYADDFKGRFVFFLETSASTAYLQINNLKNEDMATYFCARWGYISDNSYGWFDYWGQGTLVTVSS VL: DTVLTQSPALAVSPGERVSISCRASEGVYSYMHWYQQNPGQQPKLLIYKASNLASGVPARFSGSGSGTDFTLTIDPVEADDTATYFCHQNWNDPLTFGSGTKLEIKR	7.2e+06

Kindly consider the entry below.
Prompt: Which kon is listed for chBEW-8E6 (antibody, human IgG1, kappa, L234A L235A, V domains shown, also called chBEW-8E6-E4) VH: QIQLVQSGPELKKPGESVKISCKASGYTFTDYAMHWVKQAPGKVLKWMGWINTFTGKPTYIDDFKGRFVFSLEASASTANLQISDLKNEDTATYFCARGNYYSGYWYFDFWGPGTMVTMSS VL: DIQMTQSPASLSASLGETISIECRASEDISSNLAWYQQKSGKSPQLLIFAANRLQDGVPSRFSGSGSGTQFSLKISGMQPEDEGDYFCLQGSKFYTFGAGTKLELKR ?
Response: 6.2e+06
